The molecules listed here are annotated with their Kd.
# tested_system: Myocilin (Homo sapiens)
# Sequence (Q99972 whole entry): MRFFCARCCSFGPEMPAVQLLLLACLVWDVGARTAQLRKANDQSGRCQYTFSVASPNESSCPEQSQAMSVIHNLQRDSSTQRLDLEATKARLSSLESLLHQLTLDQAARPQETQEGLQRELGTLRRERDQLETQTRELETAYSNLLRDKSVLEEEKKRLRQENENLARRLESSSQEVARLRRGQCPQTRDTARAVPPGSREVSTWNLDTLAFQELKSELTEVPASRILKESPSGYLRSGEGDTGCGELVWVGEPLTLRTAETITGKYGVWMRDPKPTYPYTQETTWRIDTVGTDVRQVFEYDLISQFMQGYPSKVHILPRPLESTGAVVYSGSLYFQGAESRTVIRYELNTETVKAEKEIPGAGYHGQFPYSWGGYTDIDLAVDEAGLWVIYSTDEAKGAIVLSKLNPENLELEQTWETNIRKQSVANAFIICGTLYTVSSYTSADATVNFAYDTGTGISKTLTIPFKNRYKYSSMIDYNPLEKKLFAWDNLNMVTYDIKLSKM
# method_notes: Binding affinity myocilin-OLF domain (unknown origin) by Sypro Orange dye-based DSF assay
# measurement_context: read-out: Kd(app)
// units = µM; emit number, no label

Take a look at these entries with their results.
Cc1ccc(C(C)C)cc1NC(=O)Nc1ccc([N+](=O)[O-])cc1 = 11
Cc1cc(N(CCCl)CCCl)ccc1/C=N/NC(=O)Cc1cc(=O)oc2cc(O)ccc12 = 210
O=C(Cn1ccc(=O)[nH]c1=O)Nc1ccc(C(=O)O)c(O)c1 = 200

We now examine a further molecule.
Query string: // lookup Kd for "O=C(Nc1ccc(Oc2ccc(NC(=O)Nc3ccc([N+](=O)[O-])cc3)cc2)cc1)Nc1ccc([N+](=O)[O-])cc1"
Result string: 0.65

Where do these numbers come from? They come from ChEMBL document CHEMBL4052788.
